Source listed as ChEMBL document CHEMBL3864157.

test system: Staphylococcus aureus; test: Antibacterial activity against gentamicin-resistant Staphylococcus aureus NRS-108; type: functional
OBSERVATION_TYPE: MIC

COMPOUND	OBSERVATION_TYPE	RESULT
C#CCON=C(c1cccc(C(F)(F)F)c1)c1cc2c(cc1C(C)C)CC[C@H]1[C@](C)(C(=O)O)CCC[C@]21C	MIC	> 25 µg/mL

Now, please, on to the next compound.
Ask | What value of MIC has been recorded for this entry: CN[C@H](CC(C)C)C(=O)N[C@H]1C(=O)N[C@@H](CC(N)=O)C(=O)N[C@H]2C(=O)N[C@H]3C(=O)N[C@H](C(=O)N[C@H](C(=O)O)c4cc(O)cc(O)c4-c4cc3ccc4O)[C@H](O)c3ccc(c(Cl)c3)Oc3cc2cc(c3O[C@@H]2O[C@H](CO)[C@@H](O)[C@H](O)[C@H]2O[C@H]2C[C@](C)(N)[C@H](O)[C@H](C)O2)Oc2ccc(cc2Cl)[C@H]1O [VANCOMYCIN]
Reply | 0.39 to 0.78 µg/mL
